Numbers sourced from the nanobody polyreactivity screen of Harvey et al. (2022).

Assay: yeast display, Sf9 membrane polyspecificity reagent, FACS + sequencing; frameworks hold sequencing errors
measured.endpoint: polyreactivity (PSR sort gate)

[[record]]
monomer_sequence = "QVQLVESGGGLVQAGGSLRLSCAASGSIFRVYAMGWYRQAPGKERELVAAIRSGGGTNYADSVKGRFTISRDNAKITVYLQMNSLKPEDTAVYYCAREAATDISPGYDYWGQGTQVTVSS"
result = "low polyreactivity"

[[record]]
monomer_sequence = "QVQLVESGGGLVQAGVSLRLSCAASGRIFGYNDMGWYRQAPGKERELVAAINWTGGSTYYADSVKGRFTISRDNAKNTVYLQMNSLKPEDTAVYYCNADARTKWVQTHTDFITDYDYWGQGTQVTVSS"
result = "low polyreactivity"

[[record]]
monomer_sequence = "QVQLVESGGGLVQAGGSLRLSCAASGLIFRYYAMGWYRQAPGKERELVATIRGGGSTYYADSVKGRFTISRDNAKNTVYLQMNSLKPEDTAVYYCAADPYSYGARGSRGDYWGQGTQVTVSS"
result = "low polyreactivity"

[[record]]
monomer_sequence = "QVQLVESGGGLVQAGGSLRLSCAASGSLFIANAMGWYRQAPGKERELVAAISWSGGRTYYADSVKGRFTISRDNAKNTVYLQMNSLKPEDTAVYYCAAEWEFYYEYDYWGQGTQVTVSS"
result = "high polyreactivity"

[[record]]
monomer_sequence = "QVQLVESGGGLVQAGGSLRLSCAASGSIFIYYAMGWYRQAPGKERELVAGININGGSTYYADSVKGRFTISRDNAKNTVYLQMNSLKPEDTAVYYCAADELWWTYWDFVTNWYQRDYWGQGTQVTVSS"
result = "low polyreactivity"

[[record]]
monomer_sequence = "QVQLHESGGGLVQAGGSQRLSCASSGYIFYFQYMGWYRQAPGKEREFVAAISDGANTNYADSVKGRFTISRDNAKNTEYLQMNSLKPEDTAVYYCNADQYYWYEYDYWGQGTQVTVSS"
result = "low polyreactivity"

[[record]]
monomer_sequence = "QVQLVESGGGLVQAGGSLRLSCAASGSTFHTYTMGWYRPAPGKERELVAGISRSGGSTYYAESVKGRFTISRDNAKNTVYLQMNSLKPEATAVYYCNALSSKTDTYDYWGQGTQVTVSS"
result = "high polyreactivity"

[[record]]
monomer_sequence = "QVQLVESGGGLVQAGGSLRLSCAASGSIFQGYAMGWYRQAPGKERELVAAITYSGGRTYYADSVKGRFTISRDNAKNTVYLQMNSLKPEDTAVYYCAALTRRVKKYDYWGQGTQVTVSS"
result = "high polyreactivity"

[[record]]
monomer_sequence = "QVQLVESGGGLVQAGGSLRLSCAASGSTFGDYAMGWYRQAPGKERELVAAISSSGGSTYYADSVKGRFTISRDNAKNTVYLQMNSLKPEDTAVYYCNADRFLYYARTYWYFWFGYWGQGTQVTVSS"
result = "low polyreactivity"

[[record]]
monomer_sequence = "QVQHVESGGGLLQAGGSLRLSCAASGRIFWINAMGWYIQAPGKERELVATISSGSTSYADSVKGRFTITRDNAKNTVYLQMNSLKPEDTAVYYCAVSLRYTRSGAYDYWGQGTQVTVSS"
result = "low polyreactivity"

[[record]]
monomer_sequence = "QVQLVESGVGLVQAGGSLRLSCAAYGYTFYRYAMGWYRQAPGKERELVAAINKSGGRTYYADSVKGRFTISRDNAKNTVYLQMNSLKPEDTAVYYCNTPFDYPDNPEYDYWGQGTQVTVSS"
result = "high polyreactivity"


* * *

Test: yeast display, Sf9 membrane polyspecificity reagent, FACS + sequencing; frameworks hold sequencing errors
measured.endpoint: polyreactivity (PSR sort gate)

[[record]]
monomer_sequence = "QVQLVESGGGLVQAGGSLRLSCAASGGTFAFNAMGWYRQAPGKERELVATIRYSGGSTYADSVKGRFTISRDNAKNTVYLQMNSLKPEDTAVYYCAADVIYWFSGEYDYWGQGTQVTVSS"
measured_endpoint = "polyreactivity (PSR sort gate)"
result = "low polyreactivity"

[[record]]
monomer_sequence = "QVQLVESGGGLVQAGGSLRLRCAASGRIFTTYAMVWYRQAPGKERELVADITTGGGTYYADSVKGRFTISRDNAKNTVYLQMNSLKPEDTAVYYCNADYSADYYWYYYWGQGTQVTVSS"
measured_endpoint = "polyreactivity (PSR sort gate)"
result = "low polyreactivity"

[[record]]
monomer_sequence = "QVQLVESGGGLVQAGCSLRLSCAASGRSIAYNAMGWYRQAPGTERELVAAISWSGGSTYYADSVKGRFTISRDNAKNTVYLQMNSLIPEDTAVYYCAKRFAQYRYPYDYWGQGKQVTVSS"
measured_endpoint = "polyreactivity (PSR sort gate)"
result = "high polyreactivity"

[[record]]
monomer_sequence = "QLQLVESGGGLVQAGGSLRLSCAASGITFYGYAMGWYRQAPGKERELVAAISSRGGSTYYADSVKGRFTISRDNAKNTVYLQMNRLKPEDTAVYYCAAVYYTGEYYYWGQGTQVTVSS"
measured_endpoint = "polyreactivity (PSR sort gate)"
result = "high polyreactivity"

[[record]]
monomer_sequence = "QVQLLESGGGLVQAGGSLRLSCADSGSIFPKNAIGWYRQAPGKERELVAGITSRTGRTYYADSVKGRFTISRDNSKNTVYLQMNRLKPEDTAVYYCAARIGGGPVKYDYWGQGTQVTVSS"
measured_endpoint = "polyreactivity (PSR sort gate)"
result = "high polyreactivity"

[[record]]
monomer_sequence = "QLQRVESGGGLVQAGGSLRLSCAASGITYRYYVMGWYRQAPGKETQLVAAITSGVSTYYADSVKGRFTISRDNAKNTVYLELNSLKPEDTAVDYCAADEPWTYYLYGKMYYWGQGTQVTVSS"
measured_endpoint = "polyreactivity (PSR sort gate)"
result = "high polyreactivity"

[[record]]
monomer_sequence = "QVQRVESGGGLVQAGGSLRLSCAASGSTFYFYARGWYRQAPGKERELVAVITDGGAITYYADSVKGRFTISRDNAKNTVYLQMNSLKPEDTAVYYCAASSFGWYTRYDYWGQGTQVTVSS"
measured_endpoint = "polyreactivity (PSR sort gate)"
result = "high polyreactivity"

[[record]]
monomer_sequence = "QVQLVESGGCLVQARGSLRLRCAASGGTFYAYAMGWYREAPGKERELVAAISRSGSTYYADSVKGRFTISRDNAKNTVYLQMNSLKPEDTAVYYCAARRARRDPVGYVYAKYVYWGQGTQVTVSS"
measured_endpoint = "polyreactivity (PSR sort gate)"
result = "high polyreactivity"

[[record]]
monomer_sequence = "QVQLVESGGGLVQAGGSLRLSCAASGSIFVGYGAMGWYRQAPGKERELVAAITSGNSTYYADSVKGRFTISRDNAKNTVYLQMNSLKPEDTAVYYCAARGFLKYVTEFDYWGQGTQVTVSS"
measured_endpoint = "polyreactivity (PSR sort gate)"
result = "low polyreactivity"

[[record]]
monomer_sequence = "QVQLVESGGGLVQAGGSLRLSCAASGFTFSAYAMGWYRQAPGKERELVAAISWSGSRTYYADSVKGRFTISRDNAKNTVYLQMNSLKPEDTAVYYCAKEPYDTFGFYEYDYWGQGTQVTVSS"
measured_endpoint = "polyreactivity (PSR sort gate)"
result = "low polyreactivity"

[[record]]
monomer_sequence = "QVQLVESGGGLVQAGGSLRLICAASGRILYYNVMVWYRQAPGKEREMVASITSVVSTNYADSVKGRFTISRDNAKNTVYLQMNSLKPEDTAVYYCAARYFSGSYSDQIWGMDYWGQGTQLTVSS"
measured_endpoint = "polyreactivity (PSR sort gate)"
result = "high polyreactivity"


* * *

Assay: yeast display, Sf9 membrane polyspecificity reagent, FACS + sequencing; frameworks hold sequencing errors
measured.endpoint: polyreactivity (PSR sort gate)

[[record]]
monomer_sequence = "HVQLVESGGGLVQAGGSLRLSCAASGRILSRNAMGRYRPAPGKERELVAAISISGGSTYYADSVKGRFTISRDNAKNTVYLQRNSLKPEDTAVYYCNTAYYGYRKYDYWGQGTQVTVSS"
measured_endpoint = "polyreactivity (PSR sort gate)"
result = "high polyreactivity"

[[record]]
monomer_sequence = "QEQLQESGGGQVQAGGSLLLSCAASGNIIRYYYMGWSRQAPGKERELVAAITYGTSTNYADSVKGRFTISRDNAKNTVYLQMNSLKPEDTAVYYCAVDVNYGDPLDNWGQGTQVTVSS"
measured_endpoint = "polyreactivity (PSR sort gate)"
result = "high polyreactivity"

[[record]]
monomer_sequence = "QVQLVESGGGLVQAGGSLRLSCAASGSIFGVNAMGWYRQAPGKERELVASITGGDSTNYADSEKGRFTISRDNAKNTVYLQMNSLKPEDTAVYYCAKDHYYRYEEGDYWGQGTQVTVSS"
measured_endpoint = "polyreactivity (PSR sort gate)"
result = "low polyreactivity"

[[record]]
monomer_sequence = "QVQLVESGGGLVQAGGSLRLSCAASGFTFQDYAMGWYRQAPGKERELVAAISTSDGNTYYADSVKGRFTISRDNAKNTVYLQMNSLKPEDTAVYYCAAQRNYGWVKFYYWGQGTQVTVSS"
measured_endpoint = "polyreactivity (PSR sort gate)"
result = "high polyreactivity"

[[record]]
monomer_sequence = "QVQLVESGGGLLQAGGSRRIRCAASGRIFWVYAMGWYRKAPGKERELVAAISSTGDGTYYADSVKVRFTISRDNAKNSVYLEMNSLKPDDTAVYYCAADFRVARSPLSGGSDFWGQGTQVTVSS"
measured_endpoint = "polyreactivity (PSR sort gate)"
result = "low polyreactivity"

